Source of measurements: the supplement of paper PMC10567573

B1: EHMT1 (parent)
chain: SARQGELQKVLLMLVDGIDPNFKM

Variants of: B1
Test: protein stability index of a GFP-peptide fusion (GPS, HEK-293T) (PSI 1-6); higher = more stable;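 also: lentivirally expressed fusions sorted by FACS into six bins by GFP to DsRed ratio, PSI derived from sequencing read proportions per bin multiplied by bin number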
Conditions: c terminus: a fixed tail appended
Kindly return yes (1) if reported protein stability index is no lower than 3; return no (0) if it is lower.

CHAIN | CLASS ASSIGNMENT
SARQGELQKVLLMLVDGIDPNFKI [M24I] | no (0)
SARQGELPKVLLMLVDGIDPNFKM [Q8P] | no (0)
SARQGESQKVLLMLVDGIDPNFKM [L7S] | no (0)
SARQGILQKVLLMLVDGIDPNFKM [E6I] | yes (1)
SARQGELQKVLLMLVDGIDPNFRM [K23R] | no (0)

Determine whether this variant has protein stability index no lower than 3: SARQGELQKVLLMLVDGIDPHFKM [N21H]
no (0)
